Numbers sourced from the supplement of paper PMC6555819.

System: PPARg DBDmut:RXRa IVT, anti-PPARg (DBD mutation: PPARg1 K132A/R137A, NR concentration 270 nM, RXRa partner concentration 90 nM)
Assay: PBM binding z-score (relative to random genomic background probes); higher = stronger binding; sequences stand for … in GC…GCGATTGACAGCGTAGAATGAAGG
I would appreciate it if you labelled entries yes (1) when PBM binding z-score is 0.6 or higher, otherwise no (0).

> print(dat)
                        sequence.chain  discrete.label
 1  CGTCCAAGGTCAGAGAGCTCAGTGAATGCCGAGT          no (0)
 2  CCGACTGGGGCAAGATTACCATAACGCACAGCCA          no (0)
 3  TCTGCTAGGTCAACGATGGTCAGCTAATCTGCTA         yes (1)
 4  AAAATGAGGTTATACGTAGATCAGGGAAGAAAGT         yes (1)
 5  TTACCAAGGTGAAGGACGTTGATCCCTCTGTAGA         yes (1)
 6  TCTGCGAGGTCAACGATGGTCAGCTAATCTGCTA          no (0)
 7  TAGCCTAGGTAATTGGGCCAGTATAGTACGCATC          no (0)
 8  ATCTCTAGGTAAAGTTCAGGGAAAGATCGATAGA         yes (1)
 9  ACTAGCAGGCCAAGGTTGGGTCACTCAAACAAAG          no (0)
10  GCGCCTGGGGCATCAGCAGGTTACCATAACTTAA          no (0)
11  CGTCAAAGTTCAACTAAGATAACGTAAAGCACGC         yes (1)
12  AGAACGAGGGCACGCTGAGTTGACAGCAGAGTAG         yes (1)

====

System: RARa homodimer (NR concentration 270 nM)
Experiment: PBM binding z-score (relative to random genomic background probes); higher = stronger binding; sequences stand for … in GC…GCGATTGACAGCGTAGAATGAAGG
I would appreciate it if you labelled entries class 1 when PBM binding z-score is -0.4 or higher, otherwise class 0.

> print(dat)
                        sequence.chain  discrete.label
 1  ATCGAAAGGTCGGGGTGAGTATAGAGAAAGGGAA         class 1
 2  CGTTCAAGGTCAATGCTAGGTCAGTGAAAGCATT         class 1
 3  ATCTCTAGGTAACAGTTCAGTGAATCCCGAGGAT         class 1
 4  CAGCCTAGGTCAGGGCCAGTACAGGAGGAACGTT         class 0
 5  TAGCCTAGGTCATTCTGGGGCCAGTATAGAAAGC         class 1
 6  TCTAGCAGGCCAGGGGGTCACTCAAGAGGTACGG         class 1
 7  GCTCGGAGGACAAGTTCAGAGCTTTGTCCGTAGA         class 0
 8  ATATGTAGGTTAAGTGTCATTCAGGTTGGTTCGC         class 1
 9  CGAACTAGATCAAGGACAGTGAATCTCCGCACGC         class 1
10  TCGAGTAGGTTTGGGGCATTCAGAATGGCGTCGA         class 0
11  AGTCAAAGTTCACTAGGTAACGTACGATTCAGCT         class 1
12  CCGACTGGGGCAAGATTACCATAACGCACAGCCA         class 0

====

Tested on: PPARg:RXRa 90nM:30nM, anti-RXR (NR concentration 90 nM, RXRa partner concentration 30 nM)
Experiment: PBM binding z-score (relative to random genomic background probes); higher = stronger binding; sequences stand for … in GC…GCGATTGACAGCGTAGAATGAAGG
I would appreciate it if you labelled entries criterion met when PBM binding z-score is 2 or higher, otherwise criterion not met.

> print(dat)
                       sequence.chain     discrete.label
1  CAAACTAAGTCACAGAGGTCAAAGTCCGTGCGTA      criterion met
2  AAAGACAGGTGATGAAGGTAACTCAGGCTATCAT  criterion not met
3  TCTTGTAGTTCAGCAGGTTAAGAAAGCTGGCCAA  criterion not met
4  ATCTCTCGGTAACAAGTTCAGTGAAAGAGAGGAC  criterion not met
5  CCGACTGGGGCATAAGGTAACCATAAGCCAGCCC      criterion met

====

System: LXRa homodimer (NR concentration 270 nM)
Assay: PBM binding z-score (relative to random genomic background probes); higher = stronger binding; sequences stand for … in GC…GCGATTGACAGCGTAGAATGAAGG
I would appreciate it if you labelled entries true when PBM binding z-score is -0.2 or higher, otherwise false.

> print(dat)
                        sequence.chain                             tested.system  discrete.label
 1  TAGCCTAGGTCGTTGGGCCAGTATAGTACGCATC  LXRa homodimer (NR concentration 270 nM)           false
 2  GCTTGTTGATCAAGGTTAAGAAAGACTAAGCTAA  LXRa homodimer (NR concentration 270 nM)           false
 3  ACAGACAGGTGAGTGAAGGTAACACAGCTGGACG  LXRa homodimer (NR concentration 270 nM)           false
 4  CCTGCTGGGTCAATGGTCAGCTAAAGCAGCTCGC  LXRa homodimer (NR concentration 270 nM)           false
 5  TCATATAGGTAAATGCTAGGTGACAGTCCGATCT  LXRa homodimer (NR concentration 270 nM)            true
 6  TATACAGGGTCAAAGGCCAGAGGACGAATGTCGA  LXRa homodimer (NR concentration 270 nM)            true
 7  AGAATGTGGTTATTAAGATCAGGGAATTGCGGTC  LXRa homodimer (NR concentration 270 nM)            true
 8  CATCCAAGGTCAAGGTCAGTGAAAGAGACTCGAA  LXRa homodimer (NR concentration 270 nM)            true
 9  TCTCGGCGGACACGAAGGTCAGAGCTTTCCAGAG  LXRa homodimer (NR concentration 270 nM)            true
10  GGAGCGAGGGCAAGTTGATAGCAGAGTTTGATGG  LXRa homodimer (NR concentration 270 nM)           false
11  GCGACTGGGGAATCAGCAGGTTACCATAACTTAA  LXRa homodimer (NR concentration 270 nM)           false
12  GCTGCTAGGTGAACTGATGGTCAGCTAAAGCTCG  LXRa homodimer (NR concentration 270 nM)           false

====

Test system: PPARg:RXRa 270nM:90nM, anti-RXR (NR concentration 270 nM, RXRa partner concentration 90 nM)
Test: PBM binding z-score (relative to random genomic background probes); higher = stronger binding; sequences stand for … in GC…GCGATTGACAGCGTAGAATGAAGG
Reported PBM binding z-score by item:
measurement.kind: PBM binding z-score

> print(dat)
                       sequence.chain  measured
1  AGAATGAGGTTATACGAAGATCAGGGAAGAAAGT       1.8
2  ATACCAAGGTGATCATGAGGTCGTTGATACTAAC     0.728
3  AGAATGAGGTTATACGTAGATAAGGGAAGAAAGT      2.07
4  TCTTGTAGATCAACAGGAGGTTAAGCAAGATCGA      1.47
5  CCTATAAGTTGACCATAAGGGCAACCGAAGCTCG     0.292
6  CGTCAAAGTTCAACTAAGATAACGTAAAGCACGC      5.19

====

Tested on: PPARg DBDmut IVT, anti-PPARg (DBD mutation: PPARg1 K132A/R137A, NR concentration 270 nM)
Assay: PBM binding z-score (relative to random genomic background probes); higher = stronger binding; sequences stand for … in GC…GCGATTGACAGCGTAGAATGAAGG
Reported PBM binding z-score by item:
measurement.kind: PBM binding z-score

> print(dat)
                        sequence.chain  measured
 1  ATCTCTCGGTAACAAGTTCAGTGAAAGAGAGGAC      1.21
 2  TAGCCTAGGTCATTGGGTCAGTATAGTACGCATC     0.952
 3  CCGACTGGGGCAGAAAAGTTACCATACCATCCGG     -1.61
 4  ACTTACGGGTCAACGAGGTAATAGCACGCGTATA      1.43
 5  TTACTAAGGTGAAGGTCGTTGATCCCTCTGTAGA     0.702
 6  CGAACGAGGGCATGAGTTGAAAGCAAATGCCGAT    -0.394
 7  AATACAGGGTCATCGTAGGCCAGAGTACGCACAG      1.19
 8  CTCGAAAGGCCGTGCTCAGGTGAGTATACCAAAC    -0.325
 9  TCTATTAGTTGAAGGGCAGCCGACGAGTCCGTTT      1.07
10  TCATATAGGTAATCCAGGTGAAAGTCGGCATCTA      1.21
11  TCGAGTAGGTTACCAAAGGGGCATTCAGCTTTCT     0.119
12  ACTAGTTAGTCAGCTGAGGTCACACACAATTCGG     0.622
